tested on: P388 leukemia ip, CD2F1 mice, survival T/C; assay: NCI In Vivo Anticancer Drug Screen. Data for tumor model P388 Leukemia (intraperitoneal) in CD2F1 (CDF1) mice; conditions: endpoint: median survival time; dose: 100.0 mg/kg/injection; schedule: Q01DX005 (ip); vehicle: Klucel (hydroxypropylcellulose) (HPC); higher = longer survival
Inconclusive results and toxic doses are left out.
T/C for assorted molecules

molecule | subject.of.test | T/C
CC(=O)Nc1ccc2c(c1)N(O)C(=O)C2(C)C | P388 leukemia ip, CD2F1 mice, survival T/C | 95 % of control
C/C1=C/CCC(C)c2cc(OC(=O)c3ccccc3)c(C)cc2C1 (configuration not stated) | P388 leukemia ip, CD2F1 mice, survival T/C | 107 % of control
Cc1c(C#N)c2nc(N)c3ccccc3n2c1C | P388 leukemia ip, CD2F1 mice, survival T/C | 106 % of control
O=C(O)c1cc(-c2ccncc2)nc2ccccc12 | P388 leukemia ip, CD2F1 mice, survival T/C | 96 % of control
CC1(C)c2ccccc2-c2nc3ccccc3c(N)c2C1O (configuration not stated) | P388 leukemia ip, CD2F1 mice, survival T/C | 100 % of control

Recorded T/C for `COc1nc(N)nc2c1CSc1ccccc1-2` , please?
97 % of control

Recorded T/C for `CCCCCCc1cc(C(=O)NN)c2ccccc2n1` , please?
99 % of control

----------
T/C for assorted molecules
tested on: P388 leukemia ip, CD2F1 mice, survival T/C; experiment: NCI In Vivo Anticancer Drug Screen. Data for tumor model P388 Leukemia (intraperitoneal) in CD2F1 (CDF1) mice; conditions: endpoint: median survival time; dose: 200.0 mg/kg/injection; schedule: Q01DX009 (ip); vehicle: saline with Tween-80; higher = longer survival
Toxic doses and inconclusive results are not listed.

Sample answers from the record:
molecule | T/C
Cc1cc(C)c2c(=O)n(C)c(=O)n(C)c2n1 | 103 % of control
O=C1C2CC3CC4C(=O)C5CC1C1C2C3C4C51 (centres undefined) | 97 % of control
NC(Cc1c[nH]c2ccc([N+](=O)[O-])cc12)C(=O)O (centres undefined) | 94 % of control
NC(=O)Nc1ccccc1O | 117 % of control
O=C(O)C1=C(/C=C/Cl)CC1 | 99 % of control

Recorded T/C for `O=C1NC(=O)/C(=C/C=C/c2ccccc2)S1` , please?
123 % of control

Recorded T/C for Cc1ccc(S(=O)c2cc(C(C)(C)C)cc(C(C)(C)C)c2O)cc1 (centres undefined) , please?
88 % of control

Recorded T/C for `Cc1cc(C)c2nccc(/C=C/c3ccc(N(C)C)cc3)c2c1` , please?
116 % of control

Recorded T/C for `NC(=O)C1=C(N)CCC1` , please?
90 % of control

Recorded T/C for `COC(=O)c1cccc(OC)c1OC` , please?
100 % of control

Recorded T/C for `S` , please?
115 % of control

Recorded T/C for COc1cc(C(O)C2C(=O)OCC2C2(c3ccc4c(c3)OCO4)SCCCS2)cc(OC)c1OC (centres undefined) , please?
108 % of control

Recorded T/C for `Nc1nnc(N)n1N` , please?
99 % of control

Recorded T/C for `Nc1nc(N)nc(NC(=O)COc2cc(Cl)c(Cl)cc2Cl)n1` , please?
90 % of control

Recorded T/C for `CCCCCCC(=O)/C=C/c1cccc(OCc2ccc([N+](=O)[O-])cc2)c1` , please?
88 % of control

Recorded T/C for `O=C(c1cccnc1)c1cc(-c2ccccn2)c(=O)n2ccccc12` , please?
90 % of control

Recorded T/C for `CCOC(=O)c1ccc(NC(=NC(C)(C)C)C(C)C)cc1` , please?
91 % of control

Recorded T/C for `Cc1sc2ccccc2[n+]1CCC(=O)O` , please?
98 % of control

Recorded T/C for Cc1cc2c(cc1[N+](=O)[O-])NC(CNC(C)C)CC2 (centres undefined) , please?
108 % of control

----------
test system: P388 leukemia ip, CD2F1 mice, survival T/C; assay: NCI In Vivo Anticancer Drug Screen. Data for tumor model P388 Leukemia (intraperitoneal) in CD2F1 (CDF1) mice; settings: endpoint: median survival time; dose: 25.0 mg/kg/injection; schedule: Q04DX003 (ip); vehicle: Klucel (hydroxypropylcellulose) (HPC); higher = longer survival
Inconclusive results and toxic doses are left out.
T/C for assorted molecules

compound.structure.string | T/C
O=C(Nc1cccc(Cl)c1)c1cc(N=Nc2ccc([N+](=O)[O-])cc2Cl)ccc1O | 107 % of control
CCN(CC)C(=S)SS(C)(=O)=O | 99 % of control
NC(=S)N/N=C/c1cn(-c2ccc(N)cc2)cn1 | 100 % of control
NC(=S)N/N=C/c1ccc(O)cn1 | 115 % of control

Could you now look at the following molecule, please?
Recorded T/C for `COc1ccc2c(oc(=O)c3c(Cl)nc(C)c(C)c32)c1OC` , please?
102 % of control

----------
T/C for assorted compounds
test system: P388 leukemia ip, CD2F1 mice, survival T/C; assay: NCI In Vivo Anticancer Drug Screen. Data for tumor model P388 Leukemia (intraperitoneal) in CD2F1 (CDF1) mice; settings: endpoint: median survival time; dose: 60.0 mg/kg/injection; schedule: Q01DX005 (ip); vehicle: saline with Tween-80; higher = longer survival
Inconclusive results and toxic doses are left out.

Sample answers from the record:
compound | T/C
S=c1c(-c2ccccc2)cnc2sccn12 | 100 % of control
COC1=CC2CC(C#N)C2(OC)C=C1 (configuration not stated) | 97 % of control
Cc1ccc(NC(=O)NCCCCCCNC(=O)Nc2ccc(C)cc2)cc1 | 96 % of control
O=c1[nH]ccn1-c1ccccc1 | 102 % of control
CC(C)CC(CO)Cc1nc2ccccc2[nH]1 (configuration not stated) | 114 % of control

Give P388 leukemia ip, CD2F1 mice, survival T/C T/C for `O=c1[nH]c(=O)c2c([nH]1)oc1ccccc12`
102 % of control

Give P388 leukemia ip, CD2F1 mice, survival T/C T/C for COc1ccc2nc(NC(=O)C(=O)C(C)C(=O)c3ccc(Cl)cc3)sc2c1 (configuration not stated)
108 % of control

Give P388 leukemia ip, CD2F1 mice, survival T/C T/C for `N#CCCN(CCC#N)c1ccc(/C=C2\C(=O)N(c3ccc(S(=O)(=O)O)cc3)N=C2C(=O)O)cc1`
102 % of control

Give P388 leukemia ip, CD2F1 mice, survival T/C T/C for CC(=O)c1cc(Cl)ccc1OCC(O)CNc1ccccc1C(=O)c1ccccc1 (configuration not stated)
103 % of control

Give P388 leukemia ip, CD2F1 mice, survival T/C T/C for `NC(=O)NC1(N)C(=O)NC(=O)NC1=O`
94 % of control

Give P388 leukemia ip, CD2F1 mice, survival T/C T/C for `COC(=O)c1sc(N2CCCC2)nc1N`
102 % of control

Give P388 leukemia ip, CD2F1 mice, survival T/C T/C for `C[C@@H]1CC=C[C@@H](NC(=O)OCc2ccccc2)[C@H]1C=O`
103 % of control

----------
system: P388 leukemia ip, CD2F1 mice, survival T/C; assay: NCI In Vivo Anticancer Drug Screen. Data for tumor model P388 Leukemia (intraperitoneal) in CD2F1 (CDF1) mice; conditions: endpoint: median survival time; dose: 100.0 mg/kg/injection; schedule: Q01DX009 (ip); vehicle: saline; higher = longer survival
Toxic doses and inconclusive results are not listed.
measure.name: T/C

Sample answers from the record:
compound | recorded.result
CCCCCCC(=O)/C=C/c1ccc(OC(=O)c2ccc([N+](=O)[O-])cc2)cc1 | 92 % of control
CCC[CH2][Sn]([CH2]CCC)([CH2]CCC)[CH2]S(=O)(=O)O | 116 % of control
CC(CSc1ccccc1)C(Sc1ccccc1)Sc1ccccc1 (configuration not stated) | 98 % of control
O=C(CCl)N1c2ccccc2Sc2ccc3ccccc3c21 | 102 % of control
CN1CCN(S(=O)(=O)c2cnccc2N2CCN(CCO)CC2)CC1 | 97 % of control

Give P388 leukemia ip, CD2F1 mice, survival T/C T/C for `NC(=Nc1ccccc1)c1ccccn1`
94 % of control

Give P388 leukemia ip, CD2F1 mice, survival T/C T/C for `N#Cc1cc(Br)ccc1N`
107 % of control

----------
tested on: P388 leukemia ip, CD2F1 mice, survival T/C; experiment: NCI In Vivo Anticancer Drug Screen. Data for tumor model P388 Leukemia (intraperitoneal) in CD2F1 (CDF1) mice; conditions: endpoint: median survival time; dose: 12.5 mg/kg/injection; schedule: Q01DX005 (ip); vehicle: saline with Tween-80; higher = longer survival
Toxic doses and inconclusive results are not listed.
T/C for assorted molecules

Give P388 leukemia ip, CD2F1 mice, survival T/C T/C for `COC(=O)Nc1nc2ccc(C(=O)C3CC3)cc2[nH]1`
111 % of control

Give P388 leukemia ip, CD2F1 mice, survival T/C T/C for O=C1C2CCC(C2)C1CN1CCCCC1 (centres undefined)
98 % of control

Give P388 leukemia ip, CD2F1 mice, survival T/C T/C for `CN(C)CCCN1c2ccccc2Cc2ccccc21`
111 % of control

Give P388 leukemia ip, CD2F1 mice, survival T/C T/C for `Cc1cccc(/C=N/Nc2cc(C)c3ccccc3n2)n1`
100 % of control

Give P388 leukemia ip, CD2F1 mice, survival T/C T/C for `CN(C)CCN(Cc1ccco1)c1ccccn1`
92 % of control

Give P388 leukemia ip, CD2F1 mice, survival T/C T/C for `OCc1ccc2ccc3ccc(CO)nc3c2n1`
97 % of control

Measured values drawn from PubChem BioAssay AID330 for this set.
